- System: Staphylococcus lugdunensis
- Test Protocol: Antimicrobial susceptibility of Staphylococcus lugdunensis IDRL2639 biofilms after 24 hrs assessed as bacterial regrowth
- Assay type: functional
Property Label: BBC (µg/mL)
Answers are plain numbers, in µg/mL.

CO[C@H]1/C=C/O[C@@]2(C)Oc3c(C)c(O)c4c(O)c(c(/C=N/N5CCN(C)CC5)c(O)c4c3C2=O)NC(=O)/C(C)=C\C=C\[C@H](C)[C@H](O)[C@@H](C)[C@@H](O)[C@@H](C)[C@H](OC(C)=O)[C@@H]1C [RIFAMPIN]	32
CCOc1ccc2ccccc2c1C(=O)N[C@@H]1C(=O)N2[C@@H]1SC(C)(C)[C@@H]2C(=O)O [NAFCILLIN]	1

API: the following record is the query input.
Value lookup for BBC; key = CCCCCCCCCC(=O)N[C@@H](Cc1c[nH]c2ccccc12)C(=O)N[C@H](CC(N)=O)C(=O)N[C@@H](CC(=O)O)C(=O)N[C@@H]1C(=O)NCC(=O)N[C@@H](CCCN)C(=O)N[C@@H](CC(=O)O)C(=O)N[C@H](C)C(=O)N[C@@H](CC(=O)O)C(=O)NCC(=O)N[C@H](CO)C(=O)N[C@@H]([C@H](C)CC(=O)O)C(=O)N[C@@H](CC(=O)c2ccccc2N)C(=O)O[C@@H]1C
32

###

- System: Staphylococcus lugdunensis
- Test Protocol: Antimicrobial susceptibility of Staphylococcus lugdunensis isolates by broth microdilution method
- Assay type: functional
Property Label: MBC90 (µg/mL)
Numbers only, in µg/mL.

CCCCCCCCCC(=O)N[C@@H](Cc1c[nH]c2ccccc12)C(=O)N[C@H](CC(N)=O)C(=O)N[C@@H](CC(=O)O)C(=O)N[C@@H]1C(=O)NCC(=O)N[C@@H](CCCN)C(=O)N[C@@H](CC(=O)O)C(=O)N[C@H](C)C(=O)N[C@@H](CC(=O)O)C(=O)NCC(=O)N[C@H](CO)C(=O)N[C@@H]([C@H](C)CC(=O)O)C(=O)N[C@@H](CC(=O)c2ccccc2N)C(=O)O[C@@H]1C	1

Name the recorded MBC90 for CCOc1ccc2ccccc2c1C(=O)N[C@@H]1C(=O)N2[C@@H]1SC(C)(C)[C@@H]2C(=O)O .
2

###

- Tested on: Staphylococcus lugdunensis
- Test Protocol: Antimicrobial susceptibility of Staphylococcus lugdunensis IDRL856 biofilms after 24 hrs assessed as bacterial regrowth
- Format: functional
Property Label: BBC

Reference set (2 entries):
Cc1nnc(SCC2=C(C(=O)O)N3C(=O)[C@@H](NC(=O)Cn4cnnn4)[C@H]3SC2)s1	>128 µg/mL
CC(=O)NC[C@H]1CN(c2ccc(N3CCOCC3)c(F)c2)C(=O)O1	>128 µg/mL

# context switch: different compound, same BBC
Look up BBC for this compound: CN[C@H](CC(C)C)C(=O)N[C@H]1C(=O)N[C@@H](CC(N)=O)C(=O)N[C@H]2C(=O)N[C@H]3C(=O)N[C@H](C(=O)N[C@H](C(=O)O)c4cc(O)cc(O)c4-c4cc3ccc4O)[C@H](O)c3ccc(c(Cl)c3)Oc3cc2cc(c3O[C@@H]2O[C@H](CO)[C@@H](O)[C@H](O)[C@H]2O[C@H]2C[C@](C)(N)[C@H](O)[C@H](C)O2)Oc2ccc(cc2Cl)[C@H]1O
>128 µg/mL
